tested on: UO-31 renal; assay: NCI tumour cell line growth inhibition, 48 h
Where a SMILES comes first, the peptide text is derived from it. [ ]: non-standard residue; d: D form. The star is where a group is joined. ξ: configuration not given here. NMeY = CN[C@@H](Cc1ccc(O)cc1)C(=O)O; Cbz = O=C(OCc1ccccc1)*; ξA = CC(N)C(=O)O
Can you tell me TGI for the items I'm about to list?

Cc1cc(NS(=O)(=O)c2ccc(NO)cc2)no1 : > 100 µM
CC(=O)[O-].CC(=O)[O-].O=C([CH-]C(=O)c1ccccc1)c1ccccc1.[Nd+3].[OH3+] : 49.3 µM
CC1(C)N=C(N)N=C(N)N1c1ccc(OCC(=O)Nc2ccc(S(=O)(=O)F)cc2Cl)c(Cl)c1 : > 100 µM
CCCCC/C=C\C=C\CCCCCCCCC(=O)OC : 31.3 µM
Cc1cn(CC(=S)NCCc2c[nH]c3ccccc23)c(=O)[nH]c1=O : > 100 µM

Okay, here is my list. What is TGI for each of these?
1. Cc1ccc2ncnc(N(C)C3CCCCC3)c2c1
2. CC(=O)Oc1ccc(C2OC(c3ccc4ccccc4c3OC(C)=O)=NN2C(C)=O)c(OC(C)=O)c1 (centres undefined)
3. COc1cc(-c2nc(N)c(C#N)c3c2CCS(=O)(=O)c2ccc(C)cc2-3)cc(OC)c1OC
4. Cc1cc(-c2nc3cc(F)ccc3s2)ccc1N
5. COC(=O)C(=O)C(C(=O)OC)C(=O)C(=O)Nc1cc(Cl)c(C)cc1S(=O)(=O)O (centres undefined)
6. CC(=Nc1ccc(Cl)cc1)c1ccncc1

1. > 100 µM
2. 3.14 µM
3. > 100 µM
4. 99.4 µM
5. > 100 µM
6. > 100 µM

Okay, here is my list. What is TGI for each of these?
1. COc1ccc(C[C@@H](C(=O)N[C@@H](C)C(N)=O)N(C)C(=O)[C@@H]2CCCN2C(=O)[C@H](CC(C)C)NC(=O)C(C)NC(=O)OCc2ccccc2)cc1 (some centres undefined) (Cbz-[ξA]LP[NMeY](Me)A-NH2)
2. O=C(CCN1CCCCC1)c1csc2ccccc12
3. COc1ccc(-c2cc(=O)c3c(OC)c4ccoc4c(/C=C/C=O)c3o2)cc1
4. COc1ccc2[nH]c(C(=O)OCc3ccc4c(Br)cc(Br)c(O)c4n3)cc2c1
5. N#Cc1ccc(C2OCC3CC=CCC3CO2)cc1 (centres undefined)

1. > 100 µM
2. > 100 µM
3. 19.5 µM
4. 1.85 µM
5. > 100 µM

Okay, here is my list. What is TGI for each of these?
1. COc1ccc(COCC[C@H](C)OC2OC(CO[Si](C)(C)C(C)(C)C)C(O)C(O)C2O)cc1 (some centres undefined)
2. O=C1c2cc3c(cc2[C@@H]2C(O)[C@H]4O[C@H]4C4CCN1C42)OCO3 (some centres undefined)
3. COc1ccccc1N1CCN(S(=O)(=O)c2ccc(Cl)cc2)C1=N
4. CN(C)CC1(Cc2ccccc2)CC/C(=C\c2ccccc2)C1=O (centres undefined)
5. CC(=O)Oc1ccc2c(c1)[nH]c1c3ccc(OC(C)=O)cc3oc(=O)c21
6. CCC1=CC(OCc2ccccc2)C(CCN(Cc2ccccc2)C(=O)OCc2ccccc2)C1 (centres undefined)
7. Cc1n[nH]c(=O)n1/N=C/c1ccco1

1: > 100 µM; 2: > 37.5 µM; 3: > 100 µM; 4: > 100 µM; 5: > 100 µM; 6: 28.3 µM; 7: > 100 µM

Okay, here is my list. What is TGI for each of these?
1. C=C(C)COc1ccc2c(c1)CCC1C2CCC2(C)C(=O)/C(=N/O)CC12 (centres undefined)
2. Cc1cn(C2CC(O)C(Cn3nncc3Cn3cnc4c(N)ncnc43)O2)c(=O)[nH]c1=O (centres undefined)

["15.3 µM", "> 100 µM"]

Okay, here is my list. What is TGI for each of these?
1. C[C@@]12CC[C@@H](O)C[C@@H]1CC[C@H]1[C@H]2CC[C@@]2(C)[C@H](c3ccc(=O)oc3)CC[C@@]12O
2. COc1ccc(-c2nc3sccn3c2-c2ccnc(NCCNS(=O)(=O)c3ccc(C(F)(F)F)cc3)n2)cc1
3. O=C1c2ccccc2C(=O)c2c1oc1cc(O)c(Cl)cc21
4. COc1cc2ccnc(C#N)c2cc1OCc1ccccc1

0.0147 µM
> 100 µM
26.6 µM
> 100 µM

Okay, here is my list. What is TGI for each of these?
1. [O-]c1c2c(nn1-c1ccc(F)cc1)c1ccccc1c[n+]2Cc1ccccc1
2. COC(=O)C1c2cc3c(c(O)c2CCC1(C)O)C(=O)c1c(O)cc2c(c1C3=O)OC1OC2(C)C(O)C(N(C)C)C1O (centres undefined)

["54.9 µM", "4.62 µM"]

Okay, here is my list. What is TGI for each of these?
1. C#CN1C(=O)c2c(c(-c3ccccc3)c(-c3ccc(Oc4ccc(-c5c(-c6ccccc6)c6c(c(-c7ccccc7)c5-c5ccccc5)C(=O)N(C#C)C6=O)cc4)cc3)c(-c3ccccc3)c2-c2ccccc2)C1=O
2. Nc1ccc(Oc2ccc(C34CC5C6CC7(c8ccc(Oc9ccc(N)cc9)cc8)CC5C(C3)C(C7)C6C4)cc2)cc1

1: > 100 µM; 2: > 100 µM

Okay, here is my list. What is TGI for each of these?
1. CC(C)CC(N)C(=O)NC(CNC(CCC(N)=O)C(=O)NC(CC(C)C)C(=O)NC(CC(C)C)C(=O)O)Cc1ccc2ccccc2c1 (centres undefined)
2. c1cc[n+](Cc2c3ccccc3cc3c2ccc2ccccc23)cc1
3. COc1cc(/C=C2\CCC/C(=C\c3cc(CN4CCCC4)c(O)c(OC)c3)C2=O)cc(CN2CCCC2)c1O
4. c1ccc2cc(C3NCCc4[nH]cnc43)ccc2c1 (centres undefined)
5. Cc1cn2c(/C=N/N=C(N)N)c(-c3ccc([N+](=O)[O-])cc3)nc2s1

1: > 10 µM; 2: > 100 µM; 3: 21.7 µM; 4: > 100 µM; 5: 3.37 µM

Can you look up the measured TGI of C=CC(C)(C)NC(C(=O)N1CCC[C@H]1c1nc(-c2nc(C(=O)OCC=C(C)C)c(C)o2)c(C)o1)C(C)C (some centres undefined) for me?
> 65.1 µM
